molecular target: MAP3K7 TAB1 (human) (UniProt O43318+Q15750); assay: radiometric filter-binding kinase assay, Kinase HotSpot; settings: compound 0.5 µM; ATP 10 µM
Sequence (O43318 whole entry, looked up): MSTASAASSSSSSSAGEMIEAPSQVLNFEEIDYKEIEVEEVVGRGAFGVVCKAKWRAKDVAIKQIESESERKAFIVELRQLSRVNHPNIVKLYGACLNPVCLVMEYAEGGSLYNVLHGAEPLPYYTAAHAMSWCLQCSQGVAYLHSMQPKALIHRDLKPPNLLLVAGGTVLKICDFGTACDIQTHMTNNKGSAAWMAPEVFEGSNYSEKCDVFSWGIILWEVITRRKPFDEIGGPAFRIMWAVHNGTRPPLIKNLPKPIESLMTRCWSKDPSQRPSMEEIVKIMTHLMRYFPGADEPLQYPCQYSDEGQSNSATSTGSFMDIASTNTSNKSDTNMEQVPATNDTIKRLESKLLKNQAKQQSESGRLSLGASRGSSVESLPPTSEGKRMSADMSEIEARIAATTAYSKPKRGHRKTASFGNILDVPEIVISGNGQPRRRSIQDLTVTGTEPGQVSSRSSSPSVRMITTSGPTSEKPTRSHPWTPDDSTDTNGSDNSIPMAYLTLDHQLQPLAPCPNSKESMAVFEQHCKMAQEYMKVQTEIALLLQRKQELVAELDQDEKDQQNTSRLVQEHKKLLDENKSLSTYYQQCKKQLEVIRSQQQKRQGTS
Sequence (Q15750 whole entry, looked up): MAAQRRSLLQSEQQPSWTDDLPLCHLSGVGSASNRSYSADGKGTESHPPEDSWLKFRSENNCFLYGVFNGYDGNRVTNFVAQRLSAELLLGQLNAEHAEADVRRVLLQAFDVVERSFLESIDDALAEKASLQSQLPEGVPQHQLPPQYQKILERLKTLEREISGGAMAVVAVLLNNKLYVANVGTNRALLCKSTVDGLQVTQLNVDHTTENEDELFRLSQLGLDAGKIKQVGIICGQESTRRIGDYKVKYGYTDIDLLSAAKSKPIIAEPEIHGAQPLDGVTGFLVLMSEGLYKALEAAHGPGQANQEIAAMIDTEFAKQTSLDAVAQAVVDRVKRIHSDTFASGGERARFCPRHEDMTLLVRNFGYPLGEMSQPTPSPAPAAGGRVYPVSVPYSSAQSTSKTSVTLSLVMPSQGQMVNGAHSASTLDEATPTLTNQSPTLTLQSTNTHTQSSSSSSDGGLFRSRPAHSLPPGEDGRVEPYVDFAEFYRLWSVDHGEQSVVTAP
measured_endpoint: residual activity (%)
Give just the number in %; leave the unit off.

{"smiles_entry": "COc1ccc2c(c[n+](C)c3c4cc5c(cc4ccc23)OCO5)c1OC", "assay_result": 100}
{"smiles_entry": "CCCC(=O)Oc1ccc2[nH]c(C(=O)c3cc4ccccc4[nH]3)cc2c1", "assay_result": 92.1}
{"smiles_entry": "O=C(Nc1cccc(Nc2nccc(Nc3cccc(C(F)(F)F)c3)n2)c1)C1CC1", "assay_result": 87.4}
{"smiles_entry": "Cc1[nH]c(/C=C2\\C(=O)Nc3ccc(S(=O)(=O)N(C)c4cccc(Cl)c4)cc32)c(C)c1C(=O)N1CCN(C)CC1", "assay_result": 79.8}

Next compound, residual activity to be filled in.
Cc1ccc(Nc2nccc(N(C)c3ccc4c(C)n(C)nc4c3)n2)cc1S(N)(=O)=O has a reported residual activity of 90.6

###

molecular target: DYRK4 (human); experiment: radiometric filter-binding kinase assay, Kinase HotSpot; conditions: compound 0.5 µM; ATP 10 µM
measured_endpoint: residual activity (%)
Report as a plain number; the unit % is understood.

Entry Cc1[nH]c(/C=C2\C(=O)Nc3ccc(S(=O)(=O)N(C)c4cccc(Cl)c4)cc32)c(C)c1C(=O)N1CCN(C)CC1 ; residual activity = 96.1

Record CO[C@H]1CC2CC[C@@H](C)[C@@](O)(O2)C(=O)C(=O)N2CCCC[C@H]2C(=O)OC([C@H](C)C[C@@H]2CC[C@@H](O)[C@H](OC)C2)CC(=O)[C@H](C)/C=C(\C)[C@@H](O)[C@@H](OC)C(=O)[C@H](C)C[C@H](C)/C=C/C=C/C=C/1C (stereo partly drawn) , field residual activity: 99.8

Entry O=c1cc(N2CCOCC2)oc2c1ccc1ccccc12 — recorded residual activity = 91.9

###

biological target: UniProt Q9HAZ1; experiment: radiometric filter-binding kinase assay, Kinase HotSpot; settings: compound 0.5 µM; ATP 10 µM
Sequence (Q9HAZ1 whole entry, looked up): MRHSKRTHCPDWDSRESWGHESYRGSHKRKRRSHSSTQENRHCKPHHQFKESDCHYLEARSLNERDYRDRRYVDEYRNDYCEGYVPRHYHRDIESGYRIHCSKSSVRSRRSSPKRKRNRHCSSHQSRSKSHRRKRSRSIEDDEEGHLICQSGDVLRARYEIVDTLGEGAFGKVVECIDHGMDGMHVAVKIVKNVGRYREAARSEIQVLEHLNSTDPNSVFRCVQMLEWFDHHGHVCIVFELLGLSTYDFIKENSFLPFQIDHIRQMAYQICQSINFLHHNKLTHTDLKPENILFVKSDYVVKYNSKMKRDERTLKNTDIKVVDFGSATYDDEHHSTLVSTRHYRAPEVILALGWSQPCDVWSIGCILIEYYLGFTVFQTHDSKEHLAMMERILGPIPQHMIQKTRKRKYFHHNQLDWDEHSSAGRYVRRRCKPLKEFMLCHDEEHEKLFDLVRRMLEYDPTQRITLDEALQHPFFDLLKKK
List of residual activity values.
Be sure to follow the number with its unit.

// below: answered compounds
{"compound": "N#C/C(=C(/N)Sc1ccc(N)cc1)c1ccccc1C(F)(F)F", "target": "UniProt Q9HAZ1", "residual activity": "93.4%"}
{"compound": "O=c1cc(N2CCOCC2)oc2c1ccc1ccccc12", "target": "UniProt Q9HAZ1", "residual activity": "101%"}
{"compound": "CC(C)N(CCC(=O)c1ccc2ccccc2c1)Cc1ccccc1", "target": "UniProt Q9HAZ1", "residual activity": "91.7%"}
{"compound": "c1ccc(-c2n[nH]cc2-c2ccnc3ccccc23)nc1", "target": "UniProt Q9HAZ1", "residual activity": "101%"}
{"compound": "CO[C@H]1CC2CC[C@@H](C)[C@@](O)(O2)C(=O)C(=O)N2CCCC[C@H]2C(=O)OC([C@H](C)C[C@@H]2CC[C@@H](O)[C@H](OC)C2)CC(=O)[C@H](C)/C=C(\\C)[C@@H](O)[C@@H](OC)C(=O)[C@H](C)C[C@H](C)/C=C/C=C/C=C/1C (some centres undefined)", "target": "UniProt Q9HAZ1", "residual activity": "116%"}
{"compound": "c1ccc(-c2n[nH]c3c2oc2ccccc23)cc1", "target": "UniProt Q9HAZ1", "residual activity": "98.9%"}
{"compound": "Nc1cccc(-c2cc3c(Oc4cccc(O)c4)ncnc3[nH]2)c1", "target": "UniProt Q9HAZ1", "residual activity": "104%"}
{"compound": "O=S(=O)(c1cccc2cnccc12)N1CCCNCC1", "target": "UniProt Q9HAZ1", "residual activity": "97.1%"}

What the record says about CC[n+]1c(/C=C/N(C)c2ccccc2)n(-c2ccccc2)c2ccc(-c3nc4ccccc4s3)cc21 : residual activity is 95.5%
